system tested: NP of A/California/07/2009(H1N1/H1S) (influenza A virus, NYMC X-181 derived …)
Sequence (P03466 whole entry): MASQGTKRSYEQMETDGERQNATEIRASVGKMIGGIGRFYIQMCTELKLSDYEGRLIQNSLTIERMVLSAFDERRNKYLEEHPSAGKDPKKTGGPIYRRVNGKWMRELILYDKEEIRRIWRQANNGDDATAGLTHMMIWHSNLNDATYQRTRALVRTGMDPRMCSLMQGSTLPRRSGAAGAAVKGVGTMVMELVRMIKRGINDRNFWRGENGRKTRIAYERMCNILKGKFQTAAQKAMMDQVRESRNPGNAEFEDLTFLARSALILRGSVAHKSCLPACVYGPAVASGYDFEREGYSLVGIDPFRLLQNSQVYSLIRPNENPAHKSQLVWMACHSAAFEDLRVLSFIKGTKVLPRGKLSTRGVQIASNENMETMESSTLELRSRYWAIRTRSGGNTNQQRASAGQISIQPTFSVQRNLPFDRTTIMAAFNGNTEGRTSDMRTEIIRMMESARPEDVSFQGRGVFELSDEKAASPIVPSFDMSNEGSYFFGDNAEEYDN
protocol description: ELISA on virus-infected fixed MDCK cells
quantity: EC50
In your response, the unit should come after the numeric value.

Check out these entries, answers already filled in.
[
  {
    "binder": "NP3 (antibody, V domains shown) VH: EVQLVESGGGLVQPGGSLRLSCAASGFTISNYGIHWVRQAPGKGLEWVAGIWPFGGFTSYADSVKGRFTISADTSKNTAYLQMNSLRAEDTAVYYCARFHWNDHGYMDYWGQGTLVTVSS VL: DIQMTQSPSSLSASVGDRVTITCRASQDVGWYVAWYQQKPGKAPKLLIYSTTGLYSGVPSRFSGSGSGTDFTLTISSLQPEDFATYYCQQYYNYPITFGQGTKVEIKR",
    "EC50": "0.55 nM"
  },
  {
    "binder": "NP16 (antibody, V domains shown) VH: EVQLVESGGGLVQPGGSLRLSCAASGFTIGNSGIHWVRQAPGKGLEWVAWIGPYWGFTSYADSVKGRFTISADTSKNTAYLQMNSLRAEDTAVYYCARFGNHWHLFMDYWGQGTLVTVSS VL: DIQMTQSPSSLSASVGDRVTITCRASQDVGSYVAWYQQKPGKAPKLLISWTTGLYSGVPSRFSGSGSGTDFTLTISSLQPEDFATYYCQQYFSYPVTFGQGTKVEIKR",
    "EC50": "0.239 nM"
  },
  {
    "binder": "NP12 (antibody, V domains shown) VH: EVQLVESGGGLVQPGGSLRLSCAASGFTIDNGYIHWVRQAPGKGLEWVASIWPSWGSTYYADSVKGRFTISADTSKNTAYLQMNSLRAEDTAVYYCARGFYYYGDYWGQGTLVTVSS VL: DIQMTQSPSSLSASVGDRVTITCRASQDVGGNVAWYQQKPGKAPKLLISSTAGLYSGVPSRFSGSGSGTDFTLTISSLQPEDFATYYCQQYYDFPLTFGQGTKVEIKR",
    "EC50": "6.09 nM"
  },
  {
    "binder": "NP19 (antibody, V domains shown) VH: EVQLVESGGGLVQPGGSLRLSCAASGFTISSWGIHWVRQAPGKGLEWVAGIGPFWGYTSYADSVKGRFTISADTSKNTAYLQMNSLRAEDTAVYYCARFGVDNYGYMDYWGQGTLVTVSS VL: DIQMTQSPSSLSASVGDRVTITCRASQDVSGWVAWYQQKPGKAPKLLISWSTGLYSGVPSRFSGSGSGTDFTLTISSLQPEDFATYYCQQYFNFPVTFGQGTKVEIKR",
    "EC50": "0.304 nM"
  },
  {
    "binder": "NP9 (antibody, V domains shown) VH: EVQLVESGGGLVQPGGSLRLSCAASGFTINNGWIHWVRQAPGKGLEWVAGIGPYWGFTSYADSVKGRFMISADTSKNTAYLQMNSLRAEDTAVYYCARFDSDHDHHYSYYYYYDNGYMDYWGQGTLVTVSS VL: DIQMTQSPSSLSASVGDRVTITCRASQDVWFSVAWYQQKPGKAPKLLIYGTTSLYSGVPSRFSGSGSGTDFTLTISSLQPEDFATYYCQQYFNYPLTFGQGTKVEIKR",
    "EC50": "2.14 nM"
  }
]

Kindly give each listed record's EC50.
1. NP18 (antibody, V domains shown) VH: EVQLVESGGGLVQPGGSLRLSCAASGFTISGGGIHWVRQAPGKGLEWVASIWPSWGSTSYADSVKGRFTISADTSKNTAYLQMNSLRAEDTAVYYCARFHNGGFLVMDYWGQGTLVTVSS VL: DIQMTQSSSSLSASVGDRVTITCRASQDVGYYVAWYQQKPGKAPKLLIYGPRFLYSGVPSRFSGSGSGTDFTLTISSLQPEDFATYYCQQYSNWPITFGQGTKVEIKR
2. NP6 (antibody, V domains shown) VH: EVQLVESGGGLVQPGGSLRLSCAASGFTINDGSIHWVRQAPGKGLEWVAGIGPFGGFTYYADSVKGRFTISADTSKNTAYLQMNSLRAEDTAVYYCARSGYSGSFDYWGQGTLVTVSS VL: DIQMTQSPSSLSASVGDRVTITCRASQDVYFGVAWYQQKPGKAPKLLIYGTSYLYSGVPSRFSGSGSGTDFTLTISSLQPEDFATYYCQQFSNWPITFGQGTKVEIKR

Outgoing:
1: 0.168 nM; 2: 6.46 nM

Every entry's value here was drawn from patent US20230212554A1.
